B1: HEEH_KT_rd6_0790 (parent)
chain: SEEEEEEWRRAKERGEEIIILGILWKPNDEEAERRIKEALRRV

# Variants of: B1
# assayNotes: folding stability dG (cDNA display proteolysis); higher = more stable
# measurementParameters: PBS, room temperature
Let's look at some variants and their measured folding stability dG.
measuredParameter: folding stability dG (kcal/mol)

In [3]: df
Out[3]:
                               residuestring     measuredparameter  measuredvalue
 0  SEEEEEEWRRAKERGEEIIILGILWKPNDEEAERRIKLALRRV  folding stability dG           1.39
 1  SEEEEEEWRRATERGEEIIILGILWKPNDEEAERRIKEALRRV  folding stability dG           1.59
 2  SEEEEEAWRRAKERGEEIIILGILWKPNDEEAERRIKEALRRV  folding stability dG           2.78
 3  SEEEEDEWRRAKERGEEIIILGILWKPNDEEAERRIKEALRRV  folding stability dG           2.09
 4  SEEEEEEWRRAKERGEEIIILGISWKPNDEEAERRIKEALRRV  folding stability dG           1.67
 5  SEEEEEEWRRAKERGEEIIIGGILWKPNDEEAERRIKEALRRV  folding stability dG           1.27
 6  SEEEEEEWRRAKERGEEIIILGILWKPNDEEAERRIKEALDRV  folding stability dG           1.79
 7  SEEEEEEWRRAKEAGEEIIILGILWKPNDEEAERRIKEALRRV  folding stability dG           2.04
 8  SEEEEEEWRRPKERGEEIIILGILWKPNDEEAERRIKEALRRV  folding stability dG           1.03
 9  SEEEEEEWRRAKERGEEIIILGILWKYNDEEAERRIKEALRRV  folding stability dG           1.22
10  SEEEEEEWRRAKERGEEIIILGILWKPNDEEAERRIKEAIRRV  folding stability dG           1.97
11  SEEEEEEWRRAKERGEEIIILGILWKPWDEEAERRIKEALRRV  folding stability dG           2.05
12  SEEEEEEWRCAKERGEEIIILGILWKPNDEEAERRIKEALRRV  folding stability dG           2.25
13  SEEEEEEWRRAKERGEEIIILGILWKPNDEEAERRIKEALRRE  folding stability dG           2.08
14  SEEEEEEWRRAKERTEEIIILGILWKPNDEEAERRIKEALRRV  folding stability dG           1.18
15  SEEEEEEWRRAKERGEEIIILGILWKPNDEEAERRIKQALRRV  folding stability dG           1.93
16  SEEMEEEWRRAKERGEEIIILGILWKPNDEEAERRIKEALRRV  folding stability dG           2.82
17  SEEEEEEWRRAKERGEEIIILGNLWKPNDEEAERRIKEALRRV  folding stability dG           0.85
18  SEEEEEEWRRAKERGEEIIILGILWKPNDEEAERRIKEALKRV  folding stability dG           2.06
19  SEEEEEEWRRAKHRGEEIIILGILWKPNDEEAERRIKEALRRV  folding stability dG           1.68
20  SEEEEEEWRRAKERNEEIIILGILWKPNDEEAERRIKEALRRV  folding stability dG            1.9
21  SEEEEEEWRRAKERGEEIITLGILWKPNDEEAERRIKEALRRV  folding stability dG          0.843
22  SEEEEEEWRRAKERGEEIIRLGILWKPNDEEAERRIKEALRRV  folding stability dG           1.08
23  SEEEEEEMRRAKERGEEIIILGILWKPNDEEAERRIKEALRRV  folding stability dG           1.34
24  SEEEEEEWRRAKERGEEIIILGILWKPNDEEAERRWKEALRRV  folding stability dG           1.32
25  SEEEEEEWRRAKERGEEIIILGILWKWNDEEAERRIKEALRRV  folding stability dG           1.42
26  SEEEEEEWRRAKEYGEEIIILGILWKPNDEEAERRIKEALRRV  folding stability dG           1.68
27  SEEEEEEWRRARERGEEIIILGILWKPNDEEAERRIKEALRRV  folding stability dG           2.07
28  SEEEEEEWRRAKERGEEIIILGILWKPNMEEAERRIKEALRRV  folding stability dG           1.05
29  SEEEEEEWRRAGERGEEIIILGILWKPNDEEAERRIKEALRRV  folding stability dG           1.07
30  SEEEEEEWRRAKERGEEIIILVILWKPNDEEAERRIKEALRRV  folding stability dG            2.1
31  SEEEEEEWRRAKERGEEIIILGILDKPNDEEAERRIKEALRRV  folding stability dG          0.518
32  SEEEEETWRRAKERGEEIIILGILWKPNDEEAERRIKEALRRV  folding stability dG              2
33  SEEEEEEWRRAKERGEEIIILGILNKPNDEEAERRIKEALRRV  folding stability dG          0.423
34  SEEEEEEWRRAKERGEEIIILGILWKPNDEEAERRIKEGLRRV  folding stability dG           1.32
35  SEEEEEEWRRAKARGEEIIILGILWKPNDEEAERRIKEALRRV  folding stability dG           2.22
36  SEQEEEEWRRAKERGEEIIILGILWKPNDEEAERRIKEALRRV  folding stability dG           2.33
37  SEEEEEEWRRAKERGEEIIILGILWKPNDELAERRIKEALRRV  folding stability dG           1.69
38  SEEEEEEWRRAKERGEEMIILGILWKPNDEEAERRIKEALRRV  folding stability dG           1.42
39  SEEEEEEWRRAKERGEEIIILGILWKPNDEEAERRNKEALRRV  folding stability dG          0.613
40  SEEEEEEWRRAKERGEEIIILGILWKPNDEEAERRIKEALYRV  folding stability dG           1.74
41  MEEEEEEWRRAKERGEEIIILGILWKPNDEEAERRIKEALRRV  folding stability dG            2.5
42  SEHEEEEWRRAKERGEEIIILGILWKPNDEEAERRIKEALRRV  folding stability dG           2.33
43  SEEEEEEWRRAKERGEEIIILGGLWKPNDEEAERRIKEALRRV  folding stability dG          0.931
44  SEEGEEEWRRAKERGEEIIILGILWKPNDEEAERRIKEALRRV  folding stability dG           2.04
45  SEEEEEEWRRAKERGEEIIILGILWKPNDEEDERRIKEALRRV  folding stability dG          0.955
